Organism: Rattus norvegicus
Experimental Protocol: DrugMatrix - Regimen: Daily Repeat
Type: toxicity, organism-based, Sprague-Dawley
Design: regimen Daily Repeat, gender Male, age 6-8 weeks
Condition Info: in vivo, po, 40 mg/kg, […], tissue Blood, route oral GAVAGE, dose level Low, time 14 day
Result Type: ABSOLUTE MONOCYTE (cells/µL)
Number only, in cells/µL; omit the unit.

Inquiry: Would you kindly share the measured ABSOLUTE MONOCYTE for C=CCN ?
Reply text: 250

----------
Kindly supply the reported HEMOGLOBIN values for the records listed here.
Species on record: Rattus norvegicus
Experimental Protocol: DrugMatrix - Regimen: Daily Repeat
Assay type: toxicity, organism-based, Sprague-Dawley
Set-up: regimen Daily Repeat, gender Male, age 6-8 weeks
Condition Info: in vivo, po, 0 mg/kg, 72 h, tissue Blood, route oral GAVAGE, dose level Control, time 3 day, vehicle 100 % WATER
Just the number please, in G/DL, no unit attached.

Inquiry: Query: HEMOGLOBIN; subject: COc1cc2c(N3CCN(C(=O)Nc4ccc(OC(C)C)cc4)CC3)ncnc2cc1OCCCN1CCCCC1
Reply text: 13.07

Inquiry: May I ask what HEMOGLOBIN has been recorded for CNCCC=C1c2ccccc2CCc2ccccc21 ?
Reply text: 13.43

Inquiry: # HEMOGLOBIN lookup, item C[C@]12Cc3c[nH]nc3C[C@@H]1CC[C@@H]1[C@@H]2CC[C@@]2(C)[C@H]1CC[C@]2(C)O
Reply text: 13.17

Inquiry: Entry Nc1ccc(S(=O)(=O)Nc2ccnn2-c2ccccc2)cc1 has what HEMOGLOBIN?
Reply text: 13.32

Inquiry: Reported HEMOGLOBIN for COc1ccc(C(CN(C)C)C2(O)CCCCC2)cc1 (centres undefined) : what is it?
Reply text: 13.12

Inquiry: Which HEMOGLOBIN value belongs to CC1(C)S[C@@H]2[C@H](NC(=O)[C@H](N)c3ccc(O)cc3)C(=O)N2[C@H]1C(=O)O ?
Reply text: 13.87

Inquiry: Given the molecule CN1CCN(C(=O)OC2c3nccnc3C(=O)N2c2ccc(Cl)cn2)CC1 (centres undefined) , what is its reported HEMOGLOBIN?
Reply text: 13.83

Inquiry: Using the record for COc1cccc(C2(O)CCCCC2CN(C)C)c1 (centres undefined) , report its HEMOGLOBIN.
Reply text: 13.17

Inquiry: Look up HEMOGLOBIN: Cn1cnc([N+](=O)[O-])c1Sc1ncnc2nc[nH]c12
Reply text: 13.45

----------
Species: Rattus norvegicus
Experimental Protocol: DrugMatrix - Regimen: Daily Repeat
Assay type: toxicity, organism-based, Sprague-Dawley
Set-up: regimen Daily Repeat, gender Male, age 6-8 weeks
Condition Info: in vivo, po, 0 mg/kg, 120 h, tissue Blood, route oral GAVAGE, dose level Control, time 5 day, vehicle .5 % CMC
Result Type: PLATELET COUNT (x10E3/uL)
Respond numerically; units are x10E3/uL and should not be typed.

Inquiry: I have this molecule here, O=C1CCc2cc(OCCCCc3nnnn3C3CCCCC3)ccc2N1 , and I need its recorded PLATELET COUNT.
Reply text: 1267

Inquiry: Need PLATELET COUNT of CC[C@H]1OC(=O)[C@H](C)[C@@H](O[C@H]2C[C@@](C)(OC)[C@@H](O)[C@H](C)O2)[C@H](C)[C@@H](O[C@@H]2O[C@H](C)C[C@H](N(C)C)[C@H]2O)[C@](C)(O)C[C@@H](C)/C(=N\OCOCCOC)[C@H](C)[C@@H](O)[C@]1(C)O , thanks.
Reply text: 1298

Inquiry: So what does the record say about PLATELET COUNT for Brc1ccccc1 ?
Reply text: 1078

Inquiry: Data request, read-out PLATELET COUNT, for O=c1[nH]cc(F)c(=O)[nH]1
Reply text: 1028.5

Inquiry: Any idea what its PLATELET COUNT is? The molecule is NCC(=O)O
Reply text: 1042.83

Inquiry: Would you kindly share the measured PLATELET COUNT for CN1C(C(=O)Nc2ccccn2)=C(O)c2ccccc2S1(=O)=O ?
Reply text: 1182.33

Inquiry: Consider the molecule CCC[C@@H]1C[C@@H](C(=O)N[C@@H]([C@H]2O[C@H](SC)[C@H](O)[C@@H](O)[C@H]2O)[C@@H](C)O)N(C)C1 and give its measured PLATELET COUNT.
Reply text: 1274

Inquiry: Endpoint output: PLATELET COUNT of CN1CCC[C@@H]1CCO[C@](C)(c1ccccc1)c1ccc(Cl)cc1 . Value?
Reply text: 1097.5

Inquiry: Consider the molecule shown here: CCc1cccc2c3c([nH]c12)C(CC)(CC(=O)O)OCC3 (stereo not given) What is its recorded PLATELET COUNT?
Reply text: 1298

Inquiry: Returns the measured PLATELET COUNT for the input molecule. Input: O=c1cc(-c2ccccc2)oc2c1ccc1ccccc12
Reply text: 1427.2
